All values here come from PubChem BioAssay AID449762.

Experiment: M. tuberculosis growth inhibition, HTS (AID 449762);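 also: bacterial growth assessed after seven days of incubation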
Conditions: M. tuberculosis H37Rv growth inhibition, 7H9 media; at 25 µM; stronger effect = higher value
Out of some 330,000 compounds screened, about 1,900 (0.58%) were called active. Inconclusive results (about 4%) are left out. These entries were drawn from the full list. Potency and affinity values are given separately.
List of inhibition values.
Note: unit % is implicit; provide only the numeric part.

For orientation, consider the following solved cases.
> print(dat)
                            chemical.string  value.units  measured.number
1  O=C(COC(=O)CNC(=O)c1cccc(OC(F)F)c1)NCc1ccc2c(c1)OCO2            %             7.07
2  CCCCOC(=O)/C(=C\c1ccc([N+](=O)[O-])o1)NC(=O)c1ccccc1            %            -4.98
3    O=c1[nH]cnc2c1c(-c1ccccc1)cn2-c1ccccc1            %             5.31

Notebook: "O=C(NC1=NCCS1)C1CCN(S(=O)(=O)c2cc([N+](=O)[O-])ccc2Cl)CC1" , inhibition read as -7.02

Notebook: "C/C(=N\NC(=O)c1nnn(-c2nonc2N)c1CN(C)c1ccccc1)c1ccccc1O" , inhibition read as 12.9

Notebook: "O=c1nc(-c2ccccc2)c2ccccc2[nH]1" , inhibition read as -8.68

Notebook: "O=c1cc(-c2ccccc2)[nH]c2ccccc12" , inhibition read as 3.78

Notebook: "O=C1CCCc2c1nc(-c1ccc([N+](=O)[O-])cc1)n2O" , inhibition read as 0.46

Notebook: "COc1cccc(Nc2nnc(SCC(=O)Nc3sccc3C(N)=O)s2)c1" , inhibition read as 0.87

Notebook: "NC(=O)c1ccc(Cn2c(C(=O)c3ccc(Cl)cc3)c3ccccc3[n+]2[O-])cc1" , inhibition read as 2.02

====

Test: M. tuberculosis growth inhibition, HTS (AID 449762);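 also: bacterial growth assessed after seven days of incubation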
Details: M. tuberculosis H37Rv growth inhibition, 7H9 media; at 25 µM; stronger effect = higher value
About 1,900 (0.58%) of roughly 330,000 compounds were called active. Roughly 4% stayed inconclusive and do not appear here. Not all results are given here. Potency and affinity values are given separately.
VALUE TYPE: inhibition

For orientation, consider the following solved cases.
> print(dat)
                                   molecule  value.type             result
1        O=[N+]([O-])c1ccccc1/C=C/CN1CCCCC1  inhibition  -9.58% (inactive)
2  CN1CCN(C(=O)CCN2C(=O)/C(=C\c3ccccc3F)SC2=S)CC1  inhibition  -5.52% (inactive)
3                  Cc1cc2c(cc(C(=O)O)n2C)s1  inhibition  -1.98% (inactive)
4  Cc1cc(C)n2nc(C(=O)OC(C)C(=O)c3ccccc3)nc2n1 (configuration not stated)  inhibition   7.53% (inactive)
5           O=S(=O)(NCCN1CCCC1)c1ccc(Br)cc1  inhibition   0.37% (inactive)

Notebook: COc1ccc(C(CNC(=O)C(=O)NC2CCCCC2)N2CCN(C)CC2)cc1 (configuration not stated) , inhibition read as -12.6% (inactive)

Notebook: Cc1ccc(NC(=O)N2CCCC2C(=O)NCC2CCCCC2)cc1 (configuration not stated) , inhibition read as 5.67% (inactive)

Notebook: "O=C(CN(C(=O)CSc1nc2ccccc2o1)c1ccccc1)NC1CCCCC1" , inhibition read as -0.41% (inactive)

====

Experiment: M. tuberculosis growth inhibition, HTS (AID 449762);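 also: bacterial growth assessed after seven days of incubation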
Conditions: M. tuberculosis H37Rv growth inhibition, 7H9 media; at 25 µM; stronger effect = higher value
Among all 330,000 compounds or so, about 1,900 (0.58%) were called active. Another 4% or so got no clear call; they are omitted. A selection follows. Entries with a potency or affinity are not part of this list.
List of inhibition values.
Note: unit % is implicit; provide only the numeric part.

For orientation, consider the following solved cases.
> print(dat)
                                   compound  value.type  measured.number
1  Cc1c(S(=O)(=O)N2CCCCC2)c(=O)n(C)c(=O)n1C  inhibition            -9.81
2  COc1ccc(C(=O)OCC2CC(c3ccccc3)=NO2)cc1OC (stereo not drawn)  inhibition             2.23
3  CCN1CC(CN(C)Cc2nc(COc3ccccc3)no2)CC1=O (stereo not drawn)  inhibition             2.85
4  Cn1c(=O)n(C)c2cc(NC(=O)c3cc4ccccc4o3)ccc21  inhibition             6.91
5             CCSC(=Nc1ccccc1)C1=C(O)COC1=O  inhibition             3.26
6  CCOC(=O)N1CCN(c2c(NCCCN3CCCCCC3)c(=O)c2=O)CC1  inhibition             1.01
7  CCC(C)(C)NC(=O)C(c1ccncc1)N(C(=O)c1sc(C)nc1C)c1ccc(C)cc1 (stereo not drawn)  inhibition             3.84
8  COc1ccc(Cc2nnc(SCC(=O)N3CCc4ccccc4C3)o2)cc1  inhibition            -4.27

Notebook: "O=[N+]([O-])c1ccc(F)c(N=Cc2ccc(Br)s2)c1" , inhibition read as 1.92

Notebook: CC1CC(C)(C)CC2(C1)NC(=O)N(CC(=O)Nc1ccc(N3CCCCC3)cc1)C2=O (stereo not drawn) , inhibition read as 5.59

Notebook: "CC(/C=C/c1ccc(C)o1)=C\C(=O)O" , inhibition read as 8.65

Notebook: "Clc1ccccc1CN1CCN(c2ccccc2Cl)CC1" , inhibition read as -2.43

Notebook: "O=Nc1ccc(NOC(=O)c2ccccc2)cc1" , inhibition read as 14

Notebook: "Cc1ccc(C(=O)ONc2ccc(N=NC(=O)c3ccccc3O)cc2)cc1" , inhibition read as 2.47

Notebook: COc1ccccc1C1=NOC(COC(=O)c2ccc(Br)cc2)C1 (stereo not drawn) , inhibition read as 66.3

Notebook: "CC(/C=C\c1ccccc1)=C/C(=O)O" , inhibition read as -1.86

====

Experiment: M. tuberculosis growth inhibition, HTS (AID 449762);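 also: bacterial growth assessed after seven days of incubation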
Conditions: M. tuberculosis H37Rv growth inhibition, 7H9 media; at 25 µM; stronger effect = higher value
Hit rate of the full screen: of about 330,000 compounds, about 1,900 (0.58%) were called active. About 4% were inconclusive and are not listed. Only a sample is shown. Measured potencies and affinities stand elsewhere.
VALUE TYPE: inhibition (%)
Note: unit % is implicit; provide only the numeric part.

For orientation, consider the following solved cases.
> print(dat)
                                   molecule  value.type  measured.number
1     O=C(CCSc1nnc2ccccn12)Nc1ccc2c(c1)OCO2  inhibition            -0.07
2  CC(OC(=O)c1ccco1)C(=O)Nc1ccc(Cl)cn1 (stereo not given)  inhibition             0.78

Notebook: "O=C(O)c1ccc(Sc2nnnn2-c2ccccc2)c([N+](=O)[O-])c1" , inhibition read as 3.58

Notebook: "Cn1c(=O)n(C)c2cc([N+](=O)[O-])c(N3CCN(S(=O)(=O)c4ccc(C(C)(C)C)cc4)CC3)cc21" , inhibition read as -9.94

Notebook: CC(OC(=O)c1cc[n+]([O-])cc1)C(=O)Nc1ccc(Cl)cn1 (stereo not given) , inhibition read as -4.2

====

Experiment: M. tuberculosis growth inhibition, HTS (AID 449762);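 also: bacterial growth assessed after seven days of incubation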
Settings: M. tuberculosis H37Rv growth inhibition, 7H9 media; at 25 µM; stronger effect = higher value
In all, about 330,000 compounds went through this assay and about 1,900 (0.58%) were called active. About 4% were inconclusive and are not listed. A selection follows. Potency and affinity values are given separately.
VALUE TYPE: inhibition (%)
Note: unit % is implicit; provide only the numeric part.

> print(dat)
                                   compound  measured.number
1          CC(C)/C=C1\CC/C(=C\c2cccnc2)C1=O               11
2  COc1ccc(NC(=O)c2ccc(CNc3c(NC4CCCCC4)c(=O)c3=O)cc2)c(OC)c1            -5.88
3  CCOC(=O)c1cnc(-n2nc(C)cc2C)nc1Nc1cccc(C(=O)O)c1             19.4
4  O=C(NCCc1ccc(Cl)cc1)C1CCC(CNc2nc(=S)[nH]c3ccccc23)CC1 (centres undefined)             5.86
5  COc1ccc(NC(=O)C2CCCO2)cc1Cl (centres undefined)             55.9

Notebook: "Cc1c(Cl)ccc2c(C(=O)O)cc(-c3ccccc3)nc12" , inhibition read as 0.17

Notebook: "CC(C)(C)NC(=O)COC(=O)c1ccc(S(=O)(=O)N2CCCC2)cc1" , inhibition read as 5.11
